This collection of values is drawn from patent EP4342890A1.

In this section we review reported LogD7.4 values for a set of molecules.
assay: LogD7.4 shake-flask method (n-octanol/PBS); assay type: physicochemical; settings: radiolabeled compound; n-octanol/PBS pH 7.4; triplicates
// no unit string in output, number only

Worked examples follow.
N#C[C@@H]1CC(F)(F)CN1C(=O)CNC(=O)c1ccnc2c(OCCCNC(=O)COCC(=O)Nc3ccc(CNC(=O)CN4CCN(CC(=O)O)CCN(CC(=O)O)CCN(CC(=O)O)CC4)cc3)cccc12
-3.34
N#C[C@@H]1CC(F)(F)CN1C(=O)CNC(=O)c1ccnc2c(OCCCNC(=O)CCC(C(=O)O)N3CCN(CC(=O)O)CCN(CC(=O)O)CCN(CC(=O)O)CC3)cccc12 (stereo partly drawn)
-3.58

The record that follows has no LogD7.4 shown yet.
Asked: I would be grateful if you could share the reported LogD7.4 for `N#C[C@@H]1CC(F)(F)CN1C(=O)CNC(=O)c1ccnc2c(OCCCNC(=O)CN3CCN(C(=O)CN4CCN(CC(=O)O)CCN(CC(=O)O)CCN(CC(=O)O)CC4)CC3)cccc12` .
Given back: -3.72

---

biological target: DPP4 (Homo sapiens)
Sequence (P27487 39-766): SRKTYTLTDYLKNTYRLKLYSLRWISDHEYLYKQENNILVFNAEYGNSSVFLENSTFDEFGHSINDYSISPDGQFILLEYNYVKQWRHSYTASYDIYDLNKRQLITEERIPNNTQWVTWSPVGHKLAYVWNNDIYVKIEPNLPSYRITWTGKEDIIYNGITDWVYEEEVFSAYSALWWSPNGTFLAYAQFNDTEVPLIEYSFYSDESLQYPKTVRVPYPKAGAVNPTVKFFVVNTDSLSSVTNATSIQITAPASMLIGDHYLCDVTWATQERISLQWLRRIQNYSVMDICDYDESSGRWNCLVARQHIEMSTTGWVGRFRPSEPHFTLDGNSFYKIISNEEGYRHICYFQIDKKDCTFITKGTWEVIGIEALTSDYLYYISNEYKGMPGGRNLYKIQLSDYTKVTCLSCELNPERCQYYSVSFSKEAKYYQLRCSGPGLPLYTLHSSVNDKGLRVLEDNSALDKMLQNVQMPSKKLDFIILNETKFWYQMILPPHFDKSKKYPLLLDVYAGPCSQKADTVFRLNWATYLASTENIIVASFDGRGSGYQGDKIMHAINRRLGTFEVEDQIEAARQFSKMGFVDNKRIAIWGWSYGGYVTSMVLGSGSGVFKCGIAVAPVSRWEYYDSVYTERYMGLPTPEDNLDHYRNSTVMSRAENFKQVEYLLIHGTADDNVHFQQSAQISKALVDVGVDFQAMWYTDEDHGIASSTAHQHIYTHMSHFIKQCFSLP
Measurement name: IC50

Asked: Give recorded IC50 with DPP4 (Homo sapiens) for the following compound: `N#C[C@@H]1CC(F)(F)CN1C(=O)CNC(=O)c1ccnc2c(OCCCNC(=O)CN3CCN(CC(=O)O)CCN(CC(=O)O)CCN(CC(=O)O)CC3)cccc12`
Given back: > 10 µM

---

Listed here: items and their measured LogD7.4.
assay: LogD7.4 shake-flask method (n-octanol/PBS); type: physicochemical; settings: radiolabeled compound; n-octanol/PBS pH 7.4; triplicates
I only need the number, thanks.

Please review the entries below; each comes with its answer.
N#C[C@@H]1CC(F)(F)CN1C(=O)CNC(=O)c1ccnc2c(OCCCNC(=O)CN3CCC(NC(=O)CN4CCN(CC(=O)O)CCN(CC(=O)O)CCN(CC(=O)O)CC4)CC3)cccc12
-3.64
N#C[C@@H]1CC(F)(F)CN1C(=O)CNC(=O)c1ccnc2c(OCCCNC(=O)C3CCC(CNC(=O)CN4CCN(CC(=O)O)CCN(CC(=O)O)CCN(CC(=O)O)CC4)CC3)cccc12 (stereo partly drawn)
-3.47

Asked: Query: LogD7.4; subject: `N#C[C@@H]1CC(F)(F)CN1C(=O)CNC(=O)c1ccnc2c(OCCCNC(=O)CN3CCN(CCNC(=O)CN4CCN(CC(=O)O)CCN(CC(=O)O)CCN(CC(=O)O)CC4)CC3)cccc12`
Given back: -3.28
